molecular target: CtermHisTag-mEGFR Triple Mutant - C797S, L858R, T790M (Homo sapiens, UniProt P00533, C797S/L858R/T790M); experiment: TR-FRET probe displacement assay, EGFR triple mutant; settings: T790M 1.25 nM, probe 100 nM, 30 mins room temperature
Sequence (P00533 25-1210 T790M/C797S/L858R): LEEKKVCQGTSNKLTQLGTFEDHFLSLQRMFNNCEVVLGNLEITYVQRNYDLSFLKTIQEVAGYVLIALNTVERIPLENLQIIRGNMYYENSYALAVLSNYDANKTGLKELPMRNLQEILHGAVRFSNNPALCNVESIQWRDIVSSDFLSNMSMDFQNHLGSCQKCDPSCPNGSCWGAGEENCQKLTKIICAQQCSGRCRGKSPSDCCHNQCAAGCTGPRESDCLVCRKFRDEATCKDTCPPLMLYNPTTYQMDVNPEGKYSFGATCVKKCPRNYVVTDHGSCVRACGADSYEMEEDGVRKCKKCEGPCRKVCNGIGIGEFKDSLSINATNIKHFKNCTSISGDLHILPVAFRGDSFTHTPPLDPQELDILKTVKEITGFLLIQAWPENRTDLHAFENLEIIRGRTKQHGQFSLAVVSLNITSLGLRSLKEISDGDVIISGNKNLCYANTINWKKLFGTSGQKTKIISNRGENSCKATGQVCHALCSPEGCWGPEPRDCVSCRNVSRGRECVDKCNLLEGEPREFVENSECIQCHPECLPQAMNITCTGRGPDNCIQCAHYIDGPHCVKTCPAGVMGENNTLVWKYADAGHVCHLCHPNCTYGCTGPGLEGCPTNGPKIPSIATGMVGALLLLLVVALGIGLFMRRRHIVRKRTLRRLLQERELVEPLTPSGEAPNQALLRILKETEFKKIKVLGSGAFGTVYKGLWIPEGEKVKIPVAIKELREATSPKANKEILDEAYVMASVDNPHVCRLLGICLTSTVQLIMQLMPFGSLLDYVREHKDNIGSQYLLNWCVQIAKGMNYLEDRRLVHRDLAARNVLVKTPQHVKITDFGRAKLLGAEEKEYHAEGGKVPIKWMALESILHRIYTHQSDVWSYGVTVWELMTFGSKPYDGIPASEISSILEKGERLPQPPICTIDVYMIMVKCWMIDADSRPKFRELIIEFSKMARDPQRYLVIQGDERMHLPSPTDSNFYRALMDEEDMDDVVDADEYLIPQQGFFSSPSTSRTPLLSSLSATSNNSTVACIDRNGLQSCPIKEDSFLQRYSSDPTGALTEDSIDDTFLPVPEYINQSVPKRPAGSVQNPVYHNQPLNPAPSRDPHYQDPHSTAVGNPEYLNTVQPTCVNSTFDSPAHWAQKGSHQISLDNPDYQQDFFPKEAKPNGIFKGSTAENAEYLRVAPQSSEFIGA
observed property: IC50

Field: example entries. Status: answers known.
C#Cc1cc(NC(=O)NC2CCCC2)nc2nc(Nc3cccc(N(C)[C@H]4C[C@@H](CS(C)(=O)=O)C4)c3)ncc12 :: 20 to 100 nM
C#Cc1cc(Oc2ccccc2)nc2nc(Nc3ccc(N4CCN(C)CC4)cc3)ncc12 :: 100 to 1000 nM
C#Cc1cc(N2C(=O)NCC23CCCC3)nc2nc(Nc3ccc(N4CCN(C5COC5)CC4)cc3)ncc12 :: < 20 nM
C#Cc1cc(NC(=O)N[C@@H]2CCN(C(C)=O)C2)nc2nc(Nc3ccc(N4CCN(C)CC4)cc3)ncc12 :: 20 to 100 nM
C#Cc1cc(N2C(=O)NCC23CCCC3)nc2nc(Nc3ccc(S(C)(=O)=O)cc3)ncc12 :: < 20 nM

## Input What does the record list as IC50 for C#Cc1cc(N2C(=O)N(C)CC23CCCC3)nc2nc(Nc3ccc(N4CCOCC4)cc3)ncc12 ?
## Output 20 to 100 nM

## Input What does the record list as IC50 for C#Cc1cc(NC(=O)OC2CCCCC2)nc2nc(Nc3ccc(N4CCN(C)CC4)cc3)ncc12 ?
## Output 100 to 1000 nM

## Input What does the record list as IC50 for C#Cc1cc(OC(C)C)nc2nc(Nc3ccc(N4CCN(C)CC4)cc3)ncc12 ?
## Output 100 to 1000 nM

## Input What does the record list as IC50 for C#Cc1cc(NC(=O)NC2CCOC2)nc2nc(Nc3ccc(N4CCN(C)CC4)cc3)ncc12 (stereo not drawn) ?
## Output < 20 nM

---

molecular target: Phospho-EGFR (Tyr1068) in A431 cells (Homo sapiens, UniProt P00533); construct: endogenous in cells; assay: HTRF pEGFR/total EGFR assay in A431 cells (EGF stimulated); settings: compound 2.5 hours then 100 ng/ml EGF 30 mins, ratio pEGFR/total EGFR
Sequence (P00533 25-1210): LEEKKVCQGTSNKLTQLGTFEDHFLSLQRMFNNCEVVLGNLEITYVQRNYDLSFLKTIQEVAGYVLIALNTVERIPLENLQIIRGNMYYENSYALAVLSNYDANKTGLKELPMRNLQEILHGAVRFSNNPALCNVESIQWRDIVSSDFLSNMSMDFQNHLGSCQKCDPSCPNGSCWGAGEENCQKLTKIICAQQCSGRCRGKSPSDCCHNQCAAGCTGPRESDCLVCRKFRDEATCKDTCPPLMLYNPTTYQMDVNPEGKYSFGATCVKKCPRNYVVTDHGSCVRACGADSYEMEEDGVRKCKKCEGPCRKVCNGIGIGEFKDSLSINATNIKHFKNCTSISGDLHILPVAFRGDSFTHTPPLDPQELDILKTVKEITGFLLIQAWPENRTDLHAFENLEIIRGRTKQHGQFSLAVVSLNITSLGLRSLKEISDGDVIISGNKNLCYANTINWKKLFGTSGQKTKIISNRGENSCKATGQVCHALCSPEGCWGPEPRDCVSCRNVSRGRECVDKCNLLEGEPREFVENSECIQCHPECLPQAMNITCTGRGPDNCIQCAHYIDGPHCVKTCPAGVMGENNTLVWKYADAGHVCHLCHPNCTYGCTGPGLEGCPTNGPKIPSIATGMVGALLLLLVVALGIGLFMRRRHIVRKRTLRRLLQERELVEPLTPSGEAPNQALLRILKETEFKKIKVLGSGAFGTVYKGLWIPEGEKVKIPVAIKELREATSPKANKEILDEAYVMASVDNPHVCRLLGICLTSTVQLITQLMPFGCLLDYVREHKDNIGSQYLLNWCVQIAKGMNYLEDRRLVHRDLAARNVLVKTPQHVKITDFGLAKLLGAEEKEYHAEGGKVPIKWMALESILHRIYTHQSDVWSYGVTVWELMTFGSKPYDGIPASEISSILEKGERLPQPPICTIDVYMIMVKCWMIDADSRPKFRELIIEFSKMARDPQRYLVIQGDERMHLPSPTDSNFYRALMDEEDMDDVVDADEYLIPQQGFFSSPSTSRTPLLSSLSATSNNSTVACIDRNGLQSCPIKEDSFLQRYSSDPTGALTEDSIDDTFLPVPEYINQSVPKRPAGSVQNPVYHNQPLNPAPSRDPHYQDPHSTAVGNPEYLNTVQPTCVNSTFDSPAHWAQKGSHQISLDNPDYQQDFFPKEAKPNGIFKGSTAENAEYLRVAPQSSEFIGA
observed property: IC50

Field: example entries. Status: answers known.
C#Cc1cc(OCc2ccccc2)nc2nc(Nc3ccc(N4CCN(C)CC4)cc3)ncc12 :: > 3 µM
C#Cc1cc(N(C)C(=O)N(C)C2CCCC2)nc2nc(Nc3ccc(N4CCN(C)CC4)cc3)ncc12 :: > 3 µM
C#Cc1cc(NC(=O)NC2CCCC2)nc2nc(Nc3cccc4c3CN(C)C4)ncc12 :: > 3 µM
C#Cc1cc(NC(=O)NC2CCCC2)nc2nc(Nc3ccccc3N3CCC(CS(C)(=O)=O)C3)ncc12 (stereo not shown) :: > 3 µM
C#Cc1cc(N2C(=O)N(C)CC23CCCC3)nc2nc(Nc3ccc(N(C)C(C)=O)cc3)ncc12 :: > 3 µM

## Input Give recorded IC50 with Phospho-EGFR (Tyr1068) in A431 cells (Homo sapiens, UniProt P00533) for the following molecule: C#Cc1cc(NC(=O)NC2CCCC2)nc2nc(Nc3ccc(S(C)(=O)=O)cc3)ncc12
## Output 0.5 to 1 µM

## Input Give recorded IC50 with Phospho-EGFR (Tyr1068) in A431 cells (Homo sapiens, UniProt P00533) for the following molecule: C#Cc1cc(OC2CCC2)nc2nc(Nc3ccc(N4CCN(C)CC4)cc3)ncc12
## Output > 3 µM

## Input Give recorded IC50 with Phospho-EGFR (Tyr1068) in A431 cells (Homo sapiens, UniProt P00533) for the following molecule: C#Cc1cc(NC(=O)N(C)C)nc2nc(Nc3ccc(N4CCN(C)CC4)cc3)ncc12
## Output > 3 µM

## Input Give recorded IC50 with Phospho-EGFR (Tyr1068) in A431 cells (Homo sapiens, UniProt P00533) for the following molecule: C#Cc1cc(OC)nc2nc(Nc3cccc(CN(C)C(C)=O)c3)ncc12
## Output > 3 µM

## Input Give recorded IC50 with Phospho-EGFR (Tyr1068) in A431 cells (Homo sapiens, UniProt P00533) for the following molecule: C#Cc1cc(OC)nc2nc(Nc3ccc(N4CCN(C)CC4)c(NCc4ccn(C)n4)c3)ncc12
## Output > 3 µM
